biological target: UniProtKB P19367; assay: hexokinase 1 activators, dose response, selectivity assay for HKDC1 activator project, biochemical (AID 504762)
Sequence (P19367 whole entry): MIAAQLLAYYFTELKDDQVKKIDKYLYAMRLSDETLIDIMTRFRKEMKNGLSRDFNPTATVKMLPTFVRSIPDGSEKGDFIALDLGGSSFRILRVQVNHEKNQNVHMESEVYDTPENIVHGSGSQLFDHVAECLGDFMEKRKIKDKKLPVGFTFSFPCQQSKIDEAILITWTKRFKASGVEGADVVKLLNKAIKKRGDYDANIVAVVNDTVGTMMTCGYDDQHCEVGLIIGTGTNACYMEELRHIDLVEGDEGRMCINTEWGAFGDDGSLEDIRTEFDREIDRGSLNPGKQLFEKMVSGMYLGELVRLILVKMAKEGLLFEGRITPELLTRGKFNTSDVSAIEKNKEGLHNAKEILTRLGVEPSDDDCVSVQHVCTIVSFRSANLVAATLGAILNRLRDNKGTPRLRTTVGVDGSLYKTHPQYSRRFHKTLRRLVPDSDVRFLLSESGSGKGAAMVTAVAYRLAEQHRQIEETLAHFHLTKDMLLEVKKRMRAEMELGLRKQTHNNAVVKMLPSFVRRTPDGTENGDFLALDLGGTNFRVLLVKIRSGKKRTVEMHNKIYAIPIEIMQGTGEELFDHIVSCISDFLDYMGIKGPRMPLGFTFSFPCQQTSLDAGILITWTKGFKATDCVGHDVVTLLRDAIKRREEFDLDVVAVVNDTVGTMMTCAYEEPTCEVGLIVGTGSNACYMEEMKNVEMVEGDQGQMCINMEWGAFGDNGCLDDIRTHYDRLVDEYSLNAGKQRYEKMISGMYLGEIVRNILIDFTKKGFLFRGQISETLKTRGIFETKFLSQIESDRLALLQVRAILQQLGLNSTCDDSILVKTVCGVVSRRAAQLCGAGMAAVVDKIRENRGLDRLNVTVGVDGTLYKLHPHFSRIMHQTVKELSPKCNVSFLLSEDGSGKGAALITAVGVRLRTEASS
pEC50: −log10 of the molar value.
experimental.endpoint: pEC50

compound	pEC50
Nn1cnnc1N=NCc1cc(Br)cc(Br)c1O	4.37
Cc1ccc2c(C)c3ccc4ccccc4c3c[n+]2c1	5.28
O=C1C(=C2C(=O)c3ccccc3C2=O)Nc2ccccc21	4.43
CC(=O)Oc1cccc2c(O)c3c(c(O)c12)CC=CC3OC(C)=O (centres undefined)	4.47
Oc1c(Cl)c(N=Cc2cccnc2)c(O)c2ccccc12	4.51
